# Tested Target: UniProt P32245
# Sequence (P32245 whole entry): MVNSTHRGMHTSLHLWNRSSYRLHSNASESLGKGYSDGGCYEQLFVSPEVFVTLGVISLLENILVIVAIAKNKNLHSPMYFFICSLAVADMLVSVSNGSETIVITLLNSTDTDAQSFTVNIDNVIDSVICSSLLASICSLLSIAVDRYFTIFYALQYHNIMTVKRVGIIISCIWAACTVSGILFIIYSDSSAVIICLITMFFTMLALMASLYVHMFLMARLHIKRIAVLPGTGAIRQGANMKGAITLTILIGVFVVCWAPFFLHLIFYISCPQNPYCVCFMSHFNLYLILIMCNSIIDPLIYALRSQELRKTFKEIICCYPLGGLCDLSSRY
# Procedure Details: Agonistic potency towards human melanocortin 4 receptor, determined by 50% maximum cAMP release
Reported EC50 values are given for each entry in this list.
Readout Type: EC50

* CC(C)Oc1ccccc1N1CCN(C(=O)[C@@H](Cc2ccc(Cl)cc2)NC(=O)[C@H]2Cc3ccccc3CN2)CC1 | 93 nM
* CCc1ccccc1N1CCN(C(=O)[C@@H](Cc2ccc(Cl)cc2)NC(=O)[C@H]2Cc3ccccc3CN2)CC1 | 145 nM
* C[C@H](O)c1ccccc1N1CCN(C(=O)[C@@H](Cc2ccc(Cl)cc2)NC(=O)[C@H]2Cc3ccccc3CN2)CC1 | 34 nM
